// values below are reported viability, T/C
# System: 876862-298-R-J1-PDC complex spheroids, viability % test/control;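 note: spheroids exposed to drugs for 7 days before readout; 100% = DMSO vehicle control wells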
# test.summary: Anticancer human tumor 876862-298-R-J1-PDC patient-derived endometrial carcinoma cell line growth inhibition [CLK]
# study.conditions: second compound 0.0316 µM; first compound 0.000949 µM; active compounds read low

Examples with their reported viability, T/C follow.
- CC(C)CC(NC(=O)C(Cc1ccccc1)NC(=O)c1cnccn1)B(O)O (centres undefined) + CNC(=O)c1ccc(Nc2nc(OC3CCCC3)c3c(-c4ccc5nc(C)oc5c4)c[nH]c3n2)c(OC)c1: 78.1%
- CC(C)CC(NC(=O)C(Cc1ccccc1)NC(=O)c1cnccn1)B(O)O (centres undefined) + CN1CCN(c2cc(C(=O)Nc3cc4cc(-c5cnn(C)c5)ccc4cn3)ccn2)CC1: 92.9%
- C=CC(=O)Nc1cc(Nc2nccc(-c3cn(C)c4ccccc34)n2)c(OC)cc1N(C)CCN(C)C + CN1CCN(c2cc(C(=O)Nc3cc4cc(-c5cnn(C)c5)ccc4cn3)ccn2)CC1: 90%

For the next question, use this compound.
Entry C=CC(=O)Nc1cc(Nc2nccc(-c3cn(C)c4ccccc34)n2)c(OC)cc1N(C)CCN(C)C + CNC(=O)c1ccc(Nc2nc(OC3CCCC3)c3c(-c4ccc5nc(C)oc5c4)c[nH]c3n2)c(OC)c1 ; viability, T/C = 74.5%
